Where do the numbers come from? From patent US10703764B2.

As shown below, each of these compounds has a reported IC50 value.
Molecular target: BRD4 BD1 (Homo sapiens, UniProt O60885)
Test: AlphaScreen binding assay, BRD4 Bromodomain 1
Value Kind: IC50

> print(dat)
                       smiles.representation                                tested.on   meas.value
 1  CC(=O)N1c2ccc(-c3cccc(S(=O)(=O)C4CC4)c3)cc2N(C(=O)OC2CCOCC2)C[C@@H]1C  BRD4 BD1 (Homo sapiens, UniProt O60885)  0.1 to 1 µM
 2  CC(=O)N1c2ccc(-c3ccc(S(C)(=O)=O)cc3)cc2N(C(=O)c2oc3ccccc3c2-c2ccccc2)C[C@@H]1C  BRD4 BD1 (Homo sapiens, UniProt O60885)      > 10 µM
 3  CC(=O)N1c2ccc(-c3cnn(C4COC4)c3)cc2N(C(=O)C2CCOCC2)C[C@@H]1C  BRD4 BD1 (Homo sapiens, UniProt O60885)      > 10 µM
 4  CC(=O)N1c2ccc(-c3ccc(S(C)(=O)=O)cc3)cc2N(C(=O)Oc2ccccn2)C[C@@H]1C  BRD4 BD1 (Homo sapiens, UniProt O60885)   1 to 10 µM
 5  COC(=O)N1c2ccc(-c3cnn(CC4(C)COC4)c3)cc2N(C(=O)OC(C)C)C[C@@H]1C  BRD4 BD1 (Homo sapiens, UniProt O60885)  0.1 to 1 µM
 6  COC(=O)N1c2ccc(-c3ccc(CS(N)(=O)=O)cc3)cc2N(C(=O)OC(C)C)C[C@@H]1C  BRD4 BD1 (Homo sapiens, UniProt O60885)  0.1 to 1 µM
 7  CC(=O)N1c2ccc(-c3cnn(C4CC4)c3)cc2N(C(=O)OC2CC(F)(F)C2)C[C@@H]1C  BRD4 BD1 (Homo sapiens, UniProt O60885)  0.1 to 1 µM
 8  CC(=O)N1c2ccc(-c3cccc(S(=O)(=O)NCCO)c3)cc2N(C(=O)C2CCC2)C[C@@H]1C  BRD4 BD1 (Homo sapiens, UniProt O60885)   1 to 10 µM
 9  CC(=O)Nc1cc2c(cc1-c1cnn(C3CC3)c1)N(C(=O)OC(C)C)C[C@H](C)N2C(C)=O  BRD4 BD1 (Homo sapiens, UniProt O60885)  0.1 to 1 µM
10  CC(=O)N1c2ccc(-c3cnn(C4CC4)c3)cc2N(c2nn(C)c3ccc(F)cc23)C[C@@H]1C  BRD4 BD1 (Homo sapiens, UniProt O60885)  0.1 to 1 µM
11  CC(=O)Nc1cccc(C(=O)N2C[C@H](C)N(C(C)=O)c3ccc(-c4ccc(S(C)(=O)=O)cc4)cc32)c1  BRD4 BD1 (Homo sapiens, UniProt O60885)      > 10 µM
12  CC(C)OC(=O)N1C[C@H](C)N(C(=O)C2CC2)c2ccc(-c3ccc(C4(O)COC4)cc3)cc21  BRD4 BD1 (Homo sapiens, UniProt O60885)  0.1 to 1 µM
13  CCS(=O)(=O)c1cccc(-c2ccc3c(c2)N(C(=O)C2CC2)C[C@H](C)N3C(C)=O)c1  BRD4 BD1 (Homo sapiens, UniProt O60885)   1 to 10 µM
14  CC(=O)N1c2ccc(-c3ccc(S(C)(=O)=O)cc3)cc2N(C(=O)Oc2ccccc2Cl)C[C@@H]1C  BRD4 BD1 (Homo sapiens, UniProt O60885)  0.1 to 1 µM
15  CC(=O)N1c2ccc(-c3ncc(N)s3)cc2N(C(=O)c2ccco2)C[C@@H]1C  BRD4 BD1 (Homo sapiens, UniProt O60885)      > 10 µM
16  CC(C)OC(=O)N1C[C@H](C)N(C(=O)C2CC2)c2ccc(-c3cnn(C4COC4)c3)cc21  BRD4 BD1 (Homo sapiens, UniProt O60885)  0.1 to 1 µM
17  CC(=O)N1c2ccc(-c3ccc(S(C)(=O)=O)cc3)cc2N(C(=O)c2ccc(C(F)(F)F)o2)C[C@@H]1C  BRD4 BD1 (Homo sapiens, UniProt O60885)      > 10 µM
18  CCOC(=O)N1C[C@H](C)N(C(C)=O)c2ccc(-c3ccc(S(=O)(=O)n4cccn4)cc3)cc21  BRD4 BD1 (Homo sapiens, UniProt O60885)   1 to 10 µM
19  CC(=O)N1c2ccc(-c3cnn(C4CCS(=O)(=O)CC4)c3)cc2N(C(=O)OCC2CC2)C[C@@H]1C  BRD4 BD1 (Homo sapiens, UniProt O60885)  0.1 to 1 µM
20  CC(C)OC(=O)N1C[C@H](C)N(C(=O)C2CC2)c2ccc(-c3cnn(C(C)(C)C)c3)cc21  BRD4 BD1 (Homo sapiens, UniProt O60885)  0.1 to 1 µM
21  CC(=O)N1c2ccc(-c3ccc(C(=O)N4CC[C@@H](N)C4)cc3)cc2N(C(=O)OC(C)C)C[C@@H]1C  BRD4 BD1 (Homo sapiens, UniProt O60885)  0.1 to 1 µM
22  COc1ccc(-c2ccc3c(c2)N(C(=O)OC(C)C)C[C@H](C)N3C(C)=O)cc1NS(C)(=O)=O  BRD4 BD1 (Homo sapiens, UniProt O60885)  0.1 to 1 µM
23  CC(=O)N1c2ccc(-c3cnn(C(C)(C)CO)c3)cc2N(C(=O)Oc2cccnc2)C[C@@H]1C  BRD4 BD1 (Homo sapiens, UniProt O60885)  0.1 to 1 µM
24  CC(=O)N1c2ccc(-c3ccc(S(=O)(=O)NC4CC4)cc3)cc2N(C(=O)c2ccco2)C[C@@H]1C  BRD4 BD1 (Homo sapiens, UniProt O60885)  0.1 to 1 µM
25  CC(=O)N1c2ccc(-c3ccc(S(C)(=O)=O)cc3)cc2N(c2ncc3ccccc3n2)C[C@@H]1C  BRD4 BD1 (Homo sapiens, UniProt O60885)   1 to 10 µM
26  COc1ccc(OC(=O)N2C[C@H](C)N(C(C)=O)c3ccc(-c4ccc(S(C)(=O)=O)cc4)cc32)cc1  BRD4 BD1 (Homo sapiens, UniProt O60885)  0.1 to 1 µM
27  CCN(CC)S(=O)(=O)c1cc(-c2ccc3c(c2)N(C(=O)OC2CCCCC2)C[C@H](C)N3C(C)=O)ccc1OC  BRD4 BD1 (Homo sapiens, UniProt O60885)  0.1 to 1 µM
28  CCOC(=O)N1c2ccc(-c3ccc(S(C)(=O)=O)cc3)cc2N(C(=O)c2ccco2)C[C@@H]1C  BRD4 BD1 (Homo sapiens, UniProt O60885)      > 10 µM
